The following compounds are listed with their measured Drug uptake values.
Test system: Kidney
Assay: Biodistribution in kidney of B16F0 tumor bearing C57BL/6J mouse at 0.37-0.74 MBq, iv after 6 hrs
Format: ADME, organism-based
Conditions: in vivo
Express it in % ID/g; write the number only.

Observe how each entry below is paired with its result.
>>> measured("O=C(NCCCCN1CC2CCC1C2)c1ccc([123I])cc1 (stereo not drawn)")
4.9
>>> measured("COc1cc(NC(C)=O)c([123I])cc1C(=O)NCCCCN1CC2CCC1C2 (stereo not drawn)")
0.67
>>> measured("CCN(CC)CCNC(=O)c1cc([123I])c(NS(C)(=O)=O)cc1OC")
0.49

Given the compound COc1cc(NC(C)=O)c([123I])cc1C(=O)NCCCCN(C)C(C)C , write its reported Drug uptake.
0.69

Given the compound O=C(NC1CCN(CCF)CC1)c1ccc(I)cc1 , write its reported Drug uptake.
3.4

Given the compound CCCN(CCC)CCCCNC(=O)c1ccc([123I])cc1 , write its reported Drug uptake.
5.4

* * *

The following compounds are listed with their measured Drug uptake values.
Tested on: Blood
Assay: Biodistribution in blood of B16F0 tumor bearing C57BL/6J mouse at 0.37-0.74 MBq, iv after 6 hrs
Format: ADME, organism-based
Settings: in vivo
Express it in % ID/g; write the number only.

Observe how each entry below is paired with its result.
>>> measured("O=C(NC1CCN(CCO)CC1)c1ccc([123I])cc1")
0.21
>>> measured("CCN(CC)CCNC(=O)c1cc([123I])c(NC(C)=O)cc1OC")
0.35

Given the compound CCN(CC)CCNC(=O)c1cc([123I])c(NS(=O)(=O)c2ccc(C)cc2)cc1OC , write its reported Drug uptake.
0.33

Given the compound COc1cc(NC(C)=O)c([123I])cc1C(=O)NCCCCN(C)C(C)C , write its reported Drug uptake.
0.68

Given the compound COc1cc(NC(C)=O)c([123I])cc1C(=O)NCCCCN1CC2CCC1C2 (stereo unspecified) , write its reported Drug uptake.
0.78

Given the compound CCCCN(C)CCCCNC(=O)c1cc([123I])c(NC(C)=O)cc1OC , write its reported Drug uptake.
0.71

* * *

The following compounds are listed with their measured Drug uptake values.
System: Kidney
Test: Biodistribution in kidney of B16F0 tumor bearing C57BL/6J mouse at 0.37-0.74 MBq, iv after 24 hrs
Assay type: ADME, organism-based
Details: in vivo
Answers without a unit are incomplete; give the number and then its unit.

Observe how each entry below is paired with its result.
>>> measured("COc1cc(NC(C)=O)c([123I])cc1C(=O)NCCCCN1CC2CCC1C2 (stereo not drawn)")
"0.03 % ID/g"
>>> measured("O=C(NC1CCN(CCO)CC1)c1ccc([123I])cc1")
"1.2 % ID/g"
>>> measured("O=C(NC1CCN(CCF)CC1)c1ccc(I)cc1")
"0.22 % ID/g"
>>> measured("CCCCN(C)CCCCNC(=O)c1cc([123I])c(NC(C)=O)cc1OC")
"0.12 % ID/g"
>>> measured("CCN(CC)CCNC(=O)c1cc([123I])c(NS(C)(=O)=O)cc1OC")
"0.06 % ID/g"
>>> measured("CCCN(CCC)CCCCNC(=O)c1ccc([123I])cc1")
"0.52 % ID/g"
>>> measured("COc1cc(NC(C)=O)c([123I])cc1C(=O)NCCCCN(C)C(C)C")
"0.06 % ID/g"
>>> measured("O=C(NCCCCN1CC2CCC1C2)c1ccc([123I])cc1 (stereo not drawn)")
"0.59 % ID/g"

Determine reported Drug uptake for CCN(CC)CCNC(=O)c1cc([123I])c(NC(C)=O)cc1OC ; test system: Kidney.
0.08 % ID/g

Determine reported Drug uptake for CCN(CC)CCNC(=O)c1ccccc1[123I] ; test system: Kidney.
0.06 % ID/g

Determine reported Drug uptake for CCCCNCCCCNC(=O)c1cc([123I])c(NC(C)=O)cc1OC ; test system: Kidney.
0.05 % ID/g

Determine reported Drug uptake for CCCN(CCC)CCCCNC(=O)c1cc([123I])c(NC(C)=O)cc1OC ; test system: Kidney.
0.18 % ID/g

Determine reported Drug uptake for CCN(CC)CCNC(=O)c1cc([123I])c(NS(=O)(=O)c2ccc(C)cc2)cc1OC ; test system: Kidney.
0.06 % ID/g

Hey, just so you know, these numbers are from ChEMBL document CHEMBL1146219.
